Where these numbers come from: PubChem BioAssay (NCI)

Test system: NCI-H522 lung
assay-procedure: NCI tumour cell line growth inhibition, 48 h
Use True when the recorded TGI is no lower than 10 µM; use False when it is lower.

>  <compound>
CCOC(=O)C(=Cc1cc(OC)ccc1OC)C(=O)OCC

>  <measured-on>
NCI-H522 lung

>  <classification>
True

$$$$
>  <compound>
CC1OC(OC2CCCc3c(O)c4c(c(O)c32)C(=O)c2ccccc2C4=O)CC(N)C1O (stereo unspecified)

>  <measured-on>
NCI-H522 lung

>  <classification>
False

$$$$
>  <compound>
COc1ccccc1N1C(=O)CS(=O)(=O)C1c1cccc(Oc2ccccc2)c1 (stereo unspecified)

>  <measured-on>
NCI-H522 lung

>  <classification>
True

$$$$
>  <compound>
CC1(C)N=C(N)N=C(N)N1c1cccc(CCCCc2ccccc2)c1

>  <measured-on>
NCI-H522 lung

>  <classification>
True

$$$$
>  <compound>
CN1C(=O)c2c(c3c4ccccc4n(C4OC(CO)C(O)C(O)C4O)c3c3[nH]c4ccccc4c23)C1=O (stereo unspecified)

>  <measured-on>
NCI-H522 lung

>  <classification>
False

$$$$
>  <compound>
O=C(O)Cc1cccc2c1OC(c1ccccc1)C(C(=O)c1ccccc1)C2=O (stereo unspecified)

>  <measured-on>
NCI-H522 lung

>  <classification>
True

$$$$
